Test system: Mono-Mac-6
Test Protocol: cell viability (% survival relative to DMSO control, bortezomib = 0%); higher = less cytotoxic
Reported Conditions: 1 nM; 72 h
// cell viability lookup, one value per entry
Give the value, in units of %, as a plain number.

Answered examples (6):
>>> endpoint_result("CCCCCCCC/C=C\\CCCCCCCC(=O)Nc1ccccc1 [Octadec-9-Enoic Acid Phenylamide]")
97.1
>>> endpoint_result("Cc1ccc(-c2cc(C(F)(F)F)nn2-c2ccc(S(N)(=O)=O)cc2)cc1")
104
>>> endpoint_result("O=C(NCCN1CCC(n2c(O)nc3ccccc32)CC1)c1cc2cc(F)ccc2[nH]1")
104
>>> endpoint_result("Cc1c(Cl)cccc1S(=O)(=O)Nc1nc(CC(=O)N2CCN(C)CC2)cs1")
107
>>> endpoint_result("Cc1c2c(=O)n(-c3ccccc3Cl)[nH]c2cc(=O)n1Cc1ccccn1")
89
>>> endpoint_result("CC(C)(C)c1ccc(S(=O)(=O)NCc2ccc(C(=O)Nc3cccnc3)cc2)cc1")
107

// moving on: another record for cell viability
For `Cc1cc2c(C(C)C)c(O)c(O)c(C=O)c2c(O)c1-c1c(C)cc2c(C(C)C)c(O)c(O)c(C=O)c2c1O` the molecule record lists cell viability as 94.6

====

// cell viability lookup, one value per entry
Tested on: HL-60
Test Protocol: cell viability (% survival relative to DMSO control); higher = less cytotoxic
Reported Conditions: 0.01 µM; 72 h; co-treatment: DMSO vehicle
Give the value, in units of %, as a plain number.

>>> endpoint_result("CC(C)CC(=O)N[C@H](C(=O)N[C@H](C(=O)N[C@@H](CC(C)C)[C@@H](O)CC(=O)N[C@@H](C)C(=O)N[C@@H](CC(C)C)[C@@H](O)CC(=O)O)C(C)C)C(C)C [Pepstatin A]")
101
>>> endpoint_result("O=c1cc(-c2ccccc2)oc2c1ccc1ccccc12 [Alpha-Naphtoflavone]")
99.7
>>> endpoint_result("CO[C@H]1C[C@@H]2CC[C@@H](C)[C@@](O)(O2)C(=O)C(=O)N2CCCC[C@H]2C(=O)O[C@H]([C@H](C)C[C@@H]2CC[C@@H](OCCO)[C@H](OC)C2)CC(=O)[C@H](C)/C=C(\\C)[C@@H](O)[C@@H](OC)C(=O)[C@H](C)C[C@H](C)/C=C/C=C/C=C/1C [Everolimus]")
90.5
>>> endpoint_result("C=CCN(C)CCCCCCOc1ccc(C(=O)c2ccc(Br)cc2)c(F)c1.O=C(O)/C=C/C(=O)O [Ro 48-8071 fumarate]")
86.3

// moving on: another record for cell viability
For C[C@]12C=CC(=O)C=C1CC[C@@H]1[C@@H]2[C@@H](O)C[C@@]2(C)[C@H]1CC[C@]2(O)C(=O)CO [Prednisolone] the molecule record lists cell viability as 104

====

// cell viability lookup, one value per entry
Tested on: ML-2
Test Protocol: cell viability (% survival relative to DMSO control, bortezomib = 0%); higher = less cytotoxic
Reported Conditions: 1 nM; 72 h
Give the value, in units of %, as a plain number.

Answered examples (4):
>>> endpoint_result("O=C([O-])CC(O)(C(=O)[O-])C(O)C(=O)[O-].[K+].[K+].[K+] (stereo not given) [Hydroxycitrate]")
90.3
>>> endpoint_result("Cc1nc(-c2ccccc2)sc1C(=O)Nc1ccc(S(N)(=O)=O)cc1")
111
>>> endpoint_result("OC[C@H]1NC[C@H](O)[C@@H](O)[C@@H]1O")
95.4
>>> endpoint_result("CN(CCOc1ccc(Cc2sc(O)nc2O)cc1)c1ccccn1")
106

// moving on: another record for cell viability
For `O=c1cc(-c2ccccc2)oc2c1ccc1ccccc12` the compound record lists cell viability as 101

====

Test system: myeloid leukemia patient primary cells Pat.9
Test Protocol: cell viability (% survival relative to DMSO control); higher = less cytotoxic
Reported Conditions: 10 nM; 72 h
Labelling field: enter Fulfilled if recorded cell viability is less than 50%. Enter Not fulfilled if it equals or exceeds that cut-off.

For orientation, consider the following solved cases.
>>> discrete_label("O=c1cc(N2CCOCC2)oc2c(-c3ccccc3)cccc12")
"Fulfilled"
>>> discrete_label("O=C1C(SCCO)=C(SCCO)C(=O)c2ccccc21")
"Not fulfilled"
>>> discrete_label("CO[C@H]1C[C@@H]2CC[C@@H](C)[C@@](O)(O2)C(=O)C(=O)N2CCCC[C@H]2C(=O)O[C@H]([C@H](C)C[C@@H]2CC[C@@H](OCCO)[C@H](OC)C2)CC(=O)[C@H](C)/C=C(\\C)[C@@H](O)[C@@H](OC)C(=O)[C@H](C)C[C@H](C)/C=C/C=C/C=C/1C [Everolimus]")
"Fulfilled"
>>> discrete_label("CN1CCN(CCCN2c3ccccc3Sc3ccc(C(F)(F)F)cc32)CC1 [Trifluoperazine]")
"Not fulfilled"
>>> discrete_label("Cc1c2c(=O)n(-c3ccccc3Cl)[nH]c2cc(=O)n1Cc1ccccn1")
"Not fulfilled"
>>> discrete_label("CC(=O)Nc1nc(C)c(-c2ccc(Cl)c(S(=O)(=O)NCCO)c2)s1 [PIK93]")
"Fulfilled"

*Q* hey, is cell viability for CC(C)(C)c1ccc(S(=O)(=O)NCc2ccc(C(=O)Nc3cccnc3)cc2)cc1 [STF-31] lower than 50% or not?
*A* Fulfilled

====

// cell viability lookup, one value per entry
Test system: myeloid leukemia patient primary cells Pat.9
Test Protocol: cell viability (% survival relative to DMSO control); higher = less cytotoxic
Reported Conditions: 1000 nM; 72 h
Give the value, in units of %, as a plain number.

For `Cn1cc(-c2ccncc2)c(-c2ccc(OCc3ccc4ccccc4n3)cc2)n1` the compound record lists cell viability as 3.45

For `CO[C@H]1C[C@@H]2CC[C@@H](C)[C@@](O)(O2)C(=O)C(=O)N2CCCC[C@H]2C(=O)O[C@H]([C@H](C)C[C@@H]2CC[C@@H](OCCO)[C@H](OC)C2)CC(=O)[C@H](C)/C=C(\C)[C@@H](O)[C@@H](OC)C(=O)[C@H](C)C[C@H](C)/C=C/C=C/C=C/1C` the compound record lists cell viability as 15.7

For `c1cc(-c2cnn3cc(-c4ccc(OCCN5CCCCC5)cc4)cnc23)ccn1` the compound record lists cell viability as 41.3

====

// cell viability lookup, one value per entry
Test system: myeloid leukemia patient primary cells Pat.2
Test Protocol: cell viability (% survival relative to DMSO control); higher = less cytotoxic
Reported Conditions: 10000 nM; 72 h
Give the value, in units of %, as a plain number.

Answered examples (2):
>>> endpoint_result("CO[C@H]1C[C@@H]2CC[C@@H](C)[C@@](O)(O2)C(=O)C(=O)N2CCCC[C@H]2C(=O)O[C@H]([C@H](C)C[C@@H]2CC[C@@H](OC(=O)C(C)(CO)CO)[C@H](OC)C2)CC(=O)[C@H](C)/C=C(\\C)[C@@H](O)[C@@H](OC)C(=O)[C@H](C)C[C@H](C)/C=C/C=C/C=C/1C [Temsirolimus]")
63
>>> endpoint_result("O=c1cc(N2CCOCC2)oc2c(-c3ccccc3)cccc12")
67.2

// moving on: another record for cell viability
Test item CN1CCN(CCCN2c3ccccc3Sc3ccc(C(F)(F)F)cc32)CC1 [Trifluoperazine] ; myeloid leukemia patient primary cells Pat.2; reported cell viability was 48.6

====

System: KCL-22
Test Protocol: cell viability (% survival relative to DMSO control, bortezomib = 0%); higher = less cytotoxic
Reported Conditions: 100 nM; 72 h
// cell viability lookup, one value per entry
Give the value, in units of %, as a plain number.

For `c1cc(-c2cnn3cc(-c4ccc(OCCN5CCCCC5)cc4)cnc23)ccn1` the molecule record lists cell viability as 102

For `O=c1cc(N2CCOCC2)oc2c(-c3ccccc3)cccc12` the molecule record lists cell viability as 90.5

For `Cc1cc2c(C(C)C)c(O)c(O)c(C=O)c2c(O)c1-c1c(C)cc2c(C(C)C)c(O)c(O)c(C=O)c2c1O` the molecule record lists cell viability as 116

For C=CCN(C)CCCCCCOc1ccc(C(=O)c2ccc(Br)cc2)c(F)c1.O=C(O)/C=C/C(=O)O [Ro 48-8071 fumarate] the molecule record lists cell viability as 96.3

====

System: HL-60
Test Protocol: cell viability (% survival relative to DMSO control); higher = less cytotoxic
Reported Conditions: 10 µM; 72 h; co-treatment: pictilisib 100 nM
// cell viability lookup, one value per entry
Give the value, in units of %, as a plain number.

For CC(C)(C)c1ccc(S(=O)(=O)NCc2ccc(C(=O)Nc3cccnc3)cc2)cc1 [STF-31] the compound record lists cell viability as 3.08

For CCn1c(=Cc2cccc[n+]2CC)sc(=C2Sc3ccccc3N2C)c1=O [MKT 077] the compound record lists cell viability as 110

For C=CC(=O)c1ccc(O)cc1 [4-Acryloylphenol] the compound record lists cell viability as 58.5

For CC(=O)Nc1nc(C)c(-c2ccc(Cl)c(S(=O)(=O)NCCO)c2)s1 [PIK93] the compound record lists cell viability as 16.6

For Cc1cccc(Nc2cc(Cl)nc(SCC(=O)O)n2)c1C [Pirinixic acid] the compound record lists cell viability as 96.7

For N#Cc1ccnc(N2C(=O)CC[C@H]2C(=O)N(c2cncc(F)c2)[C@H](C(=O)NC2CC(F)(F)C2)c2ccccc2Cl)c1 [AG-120] the compound record lists cell viability as 98.6

For CCCc1nc(C)c2c(=O)nc(-c3cc(S(=O)(=O)N4CCN(CC)CC4)ccc3OCC)[nH]n12 [Vardenafil] the compound record lists cell viability as 107

For COC(=O)c1cc2c(C(F)(F)F)cc(-c3ccccc3)cc2n1O [NHI-2] the compound record lists cell viability as 97.3
